Where do these numbers come from? They come from the supplement of paper PMC9170038.

Test system: MS2 coat protein
Assay: apparent KD of MS2 coat protein; designed switch direction (-1 OFF switch, 1 ON switch): -1; higher = weaker reporter binding
Details: input ligand: FMN 200 uM
REPORTED PROPERTY: apparent KD of MS2 coat protein (nM)
One number for each entry, in nM.

Use the examples below as a reference point.
INSERT INTO results (sequence_input, unit_info, value_reported) VALUES
  ('GCUUUUGGGCAAGGAUAUCCUGCGCUGUUCUGGUUCGUGUCUGUCACAUGAGGAUCACCCAUGUGGGAGAAGGUGCCUGUGGUG [Design 70] (Eterna round: R96, puzzle: Exclusion NG 2)', 'nM', 17),
  ('UUUUUAUAUGAAGGAUAUACUUAACAUGAGGAUCACCCAUGUGGUGUUGUGAGUGAGUGAGUUUAGUAGAAGGUCAAUGAUUAU [JMF''s solution 59] (Eterna round: R96, puzzle: Exclusion NG 2)', 'nM', 991);

Please look at the following sequence next.
Lab note: record apparent KD of MS2 coat protein of GGAAACCGAGGAUAUCAGUACACGCACAUGAGGAUCACCCAUGUGCUCCUGGGUGCUGUCUGAGAAGGCGGUGAGA [Quan] (Eterna round: R97, puzzle: Exclusion 5) tested on MS2 coat protein.
648

====

System: K4 kissing-loop RNA reporter
Assay: apparent KD of K4 kissing-loop reporter; higher = weaker reporter binding
Conditions: Eterna round: R107; input ligand: tryptophan 2.4 mM
Please provide measured apparent KD of K4 kissing-loop reporter for the entries that follow.
Answers are plain numbers, in µM.

Use the examples below as a reference point.
INSERT INTO measurements (sequence_input, target_entity, unit_info, value_reported) VALUES
  ('AUCUUGUUUGGAGGAUAUUCUUUAUUUGACAUAACCUUCUAUAAGGUGCAGUGAUGUUGCAAUAUAGGAGAAGGUCGAGUGAGAU [Exclusion FMN B GF 18]', 'K4 kissing-loop RNA reporter', 'µM', 0.177),
  ('UUGGAAAUCAGAAGGAGCGUCUAAAAUGAAGGAACCAGUGAUGUUGGUUUUAUUUAAUGAAGACAGGUAGGUCGCUGAAUUUUUA [Same State Arginie B GF 18]', 'K4 kissing-loop RNA reporter', 'µM', 0.0915),
  ('GAGUUUCGUAAAGGAUAUUCUAGCUAAAGCCAUUAGUGAUGUUGAUGUACGGACGGAAGCCUGGCAGAAGAAGGUUAACAGGAUU [theeternabot_sameState_KL_FMN_B_24]', 'K4 kissing-loop RNA reporter', 'µM', 0.312);

Provide each entry's apparent KD of K4 kissing-loop reporter from the list below.
1. CAAUGAGUAUAAGAUGAUAUCAUCACAGAAGGAGCGAGUGAUAACUCAGGUAGGUCGCUGAAUUUAUCGAGUGAUGUUCGAUAGA [whbob_SS_Arginine_A_sa118]
2. UGUCAUUGGUCGGCCGCCACUAGGACCGGGUAUAACCUAGUGAUGUUAGUAAAUACGGCCGCCACUAGGACCGGGACCGAUGACU [KL-SSTryp-B18 #DoubleAptamer]
3. GGUGCUGUCUGUGCCGCCCUCCUCGUCCCUCGAGGACCGGUACGGCCGCCACUCGAGUGAUGUUCGGGUAGCGAUCCCUGCUAGC [Bdazzled - #18 Exc. Tryptophan A]

1: 0.17; 2: 0.102; 3: 0.256

====

Tested on: K4 kissing-loop RNA reporter;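 also: bound reporter read as fluorescence of individual clusters on recovered sequencing chips by microscopy, with normalized cluster intensities fitted with a binding model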
Assay: apparent KD of K4 kissing-loop reporter; higher = weaker reporter binding
Conditions: Eterna round: R107; input ligand: tryptophan 2.4 mM
REPORTED PROPERTY: apparent KD of K4 kissing-loop reporter (nM)
Numbers only, in nM.

Use the examples below as a reference point.
INSERT INTO assay_data (sequence_input, unit_info, value_reported) VALUES
  ('CCAGGUUGCCGCAACGACCUGGAUUUUAGGGAGGAUAUCCAGAGCAGGAGAAGGCCCAGUGAUGUUGGGCCUGUGGAGCCCAUAU [Ararensoza]', 'nM', 151),
  ('UGUCAUUGGUCGGCCGCCACUUCAUAAAGAGUGAUGUUCUAAAAGACGGAUCGAAAGAUCUGUCGAAGGACCGGGACCGAUGACU [TrypBS 18 #SwitchBubble #StaticStem]', 'nM', 279),
  ('ACGUAGUUCUAGGAUACCAGCCAAGGACGCCAGGACAAAAGUCCUGGCGCCAGUGAUGUUGGCCCUUGGCAGCCUAGAACUACGA [Omei KL Theo B Exc B v5]', 'nM', 176),
  ('AGUAUUGAGUCGGCCGCCACUGGUUUAAUGAGUGUCAAUUCUGGAUCAAAGUGAUGUUUUGGAGCUAGGACCGGGACCAUUGUUA [#07 K4 Tryptophan B Exclusion]', 'nM', 479),
  ('UUGGCCCGGCCGGAAGGCCGGGCCUGCGAGCGAGGACCGGUACGGCCGCCACUCGGCGCAGUGAUGUUGCGUGGCCGCAAGGCCG [#2 Exclusion - Tryptophan A Attempt #1 (HarryS)]', 'nM', 874),
  ('UAGAUGUUGUAAGAUAUUGAUAGUCGGGAAGGAGCGCUCACAAUAGCAGGUAGGUCGCCCGACAGUGUUAGGAGUGAUGUUCCUU [7.)]', 'nM', 83.5),
  ('AAAUUUUCAAGUGAUACCAGACAUCUCUAUUACAUUAAUAUAGCUAAGUGAUGUUUAGCAGUCCCUUGGCAGCACAAUUUAAUUA [JR_SSTheophyB_Sub013]', 'nM', 215),
  ('UGAUAGGACAGAAGGAGCGGUAGUGAUGUUACCAAAAGUAUAAGGUGUCAAAAGACACCCUACCAGGUAGGUCGCUGUCCUAUCU', 'nM', 286),
  ('AUCGUUGUCUGAGGAUAUCGUUUAACUGUAGUGAUGUUACAGAAAAUUCAUAUUAUAUUUUCUAUUCGAGAAGGCAGACUACGUA [JR_ExcFMNB_Sub016]', 'nM', 138),
  ('AAAAUAAACCAGUGAUGUUGGUGUCCAGAUACCAGCGAUAAUCAUCGCCCUUGGCAGCUGCGGACGUACAAAAUAAGUACGUCCU [MatMod 12 - Jieux - Same State - Theophylline A]', 'nM', 567);

Provide each entry's apparent KD of K4 kissing-loop reporter from the list below.
1. UUAAUAAUUCAAGGAUAUGUUUUCUAUUUCGAGUGAUGUUCGGAAUUAAUAAAUUUAAAAGAUUAUACAGAAGGUGAUGGAUAGU [Cynwulf-mod#4]
2. UGACUGGACUGAAGGAGCGCGCGAGACAAAGUCUCGAACUCGUAGUGAUGUUAGGAAAUAACGCAGGUAGGUCGCAGUCUAGUCU
3. AAUUUAGUGACGGCCGCCACUAGGGUGAUUUUUUUGUUUGAGUGAUGUUUUGAUGUUUGAUUUUGUAGGACCGGGUUAGGUGAUG [cccmullin]

1. 90.3
2. 512
3. 262

Provide each entry's apparent KD of K4 kissing-loop reporter from the list below.
1. GAACGGAGUGAUGUUCCGUUGACGAUCCUACGAGGACCGGUACGGCCGCCACUCGUAUUGCAGUGAUGUUGCAACCAGCCGUACU [Exclusion Tryptophan A GF 10]
2. GCAGUGAUGUUGCGCGGGUACAGUGGAGUGCGAGGACCGGUACGGCCGCCACUCGUACAGAACUGGCUAAUAUAUGGAUAGGUGA [VII]

1: 87.9; 2: 210

Provide each entry's apparent KD of K4 kissing-loop reporter from the list below.
1. AGAUGUCCCUGGGAUACCAGUCGGAGUCUCAGAGCUCGGAGUGAUGUUCUGGGAUGUUUCGGCCCUUGGCAGCUCUGGGACUCCC [#2 Exclusion - Theophylline B Attempt #25 (HarryS)]
2. AUUUGUUUAUGUGAUACCAGACUUUGCAGUGAUGUUGCAUUUAUUUUAGAAUAUAAUUUAGUCCCUUGGCAGCACUAUGUAUUUA [JR_SSTheophyB_Sub008]

1: 909; 2: 63.4

Provide each entry's apparent KD of K4 kissing-loop reporter from the list below.
1. GGGAGUAGUGCGGCCGCCACUGUGAAAGAAGAAGAAUAUAGUGAUGUUAUAUAGGAAUUAAAGAAUAGGACCGGGCAUUAGAUUU [SSTRyptB.Q]
2. CUUGUACAAGUGAUGUUUGUUAUAUCCGAAGGAGCGUCGUAAUAGACAGGUAGGUCGCGGAGUAAGAUAGUUUUUUUAAUAUCAU [JR_Nu_SSArginiA_Sub029]
3. UAGCGGUGGAGGCCACCGCUAUUCUGAGAAGGAGCGCAGAUGACUGCAGGUAGGUCGCUUAGAGCUUGCAGUGAUGUUGCAAGUU [Araatlaqu]
4. AAGUCACAGGCAGGAUAUGCUUAGUAAUAAGGCCAUAUAUACGUAUAGAGUGAUGUUUUGUACCAGGCAGAAGGGCUACAUCCGU [FMN B Excl V3 (+2GCs)]

[184, 288, 177, 597]
